Assay: binders from COS7 lysate, DM2A8 probe, primary screen, torsin A project, cell lysate, small-molecule microarray, fluorescence 635/667 (AID 1065)
Settings: higher = more signal, COS7 lysate expressing mutant human TOR1A
Below, each entry is listed alongside its reported composite z-score.
MEASURED METRIC: composite z-score

                           substance_smiles    measured_metric     val
0  COc1ccc(CCNC(=O)[C@@]2(Sc3ccc(C)cc3)CC(=O)N(C(C)C)[C@@H]2c2ccc(CO)cc2I)cc1  composite z-score  -0.566
1  CCCC[C@@H]1C[C@H]1[C@@H](NC(=O)C(C)(C)C)c1ccc(C(F)(F)F)cc1  composite z-score   0.466
2  COc1ccccc1CN1C(=O)c2ccccc2[C@@H](C(=O)NC2CC2)[C@@H]1c1ccc(CO)cc1  composite z-score   0.293

Entry source: PubChem BioAssay
